TARGET OF ASSAY: Serine/threonine-protein kinase LMTK3 (Homo sapiens)
Sequence (Q96Q04 whole entry): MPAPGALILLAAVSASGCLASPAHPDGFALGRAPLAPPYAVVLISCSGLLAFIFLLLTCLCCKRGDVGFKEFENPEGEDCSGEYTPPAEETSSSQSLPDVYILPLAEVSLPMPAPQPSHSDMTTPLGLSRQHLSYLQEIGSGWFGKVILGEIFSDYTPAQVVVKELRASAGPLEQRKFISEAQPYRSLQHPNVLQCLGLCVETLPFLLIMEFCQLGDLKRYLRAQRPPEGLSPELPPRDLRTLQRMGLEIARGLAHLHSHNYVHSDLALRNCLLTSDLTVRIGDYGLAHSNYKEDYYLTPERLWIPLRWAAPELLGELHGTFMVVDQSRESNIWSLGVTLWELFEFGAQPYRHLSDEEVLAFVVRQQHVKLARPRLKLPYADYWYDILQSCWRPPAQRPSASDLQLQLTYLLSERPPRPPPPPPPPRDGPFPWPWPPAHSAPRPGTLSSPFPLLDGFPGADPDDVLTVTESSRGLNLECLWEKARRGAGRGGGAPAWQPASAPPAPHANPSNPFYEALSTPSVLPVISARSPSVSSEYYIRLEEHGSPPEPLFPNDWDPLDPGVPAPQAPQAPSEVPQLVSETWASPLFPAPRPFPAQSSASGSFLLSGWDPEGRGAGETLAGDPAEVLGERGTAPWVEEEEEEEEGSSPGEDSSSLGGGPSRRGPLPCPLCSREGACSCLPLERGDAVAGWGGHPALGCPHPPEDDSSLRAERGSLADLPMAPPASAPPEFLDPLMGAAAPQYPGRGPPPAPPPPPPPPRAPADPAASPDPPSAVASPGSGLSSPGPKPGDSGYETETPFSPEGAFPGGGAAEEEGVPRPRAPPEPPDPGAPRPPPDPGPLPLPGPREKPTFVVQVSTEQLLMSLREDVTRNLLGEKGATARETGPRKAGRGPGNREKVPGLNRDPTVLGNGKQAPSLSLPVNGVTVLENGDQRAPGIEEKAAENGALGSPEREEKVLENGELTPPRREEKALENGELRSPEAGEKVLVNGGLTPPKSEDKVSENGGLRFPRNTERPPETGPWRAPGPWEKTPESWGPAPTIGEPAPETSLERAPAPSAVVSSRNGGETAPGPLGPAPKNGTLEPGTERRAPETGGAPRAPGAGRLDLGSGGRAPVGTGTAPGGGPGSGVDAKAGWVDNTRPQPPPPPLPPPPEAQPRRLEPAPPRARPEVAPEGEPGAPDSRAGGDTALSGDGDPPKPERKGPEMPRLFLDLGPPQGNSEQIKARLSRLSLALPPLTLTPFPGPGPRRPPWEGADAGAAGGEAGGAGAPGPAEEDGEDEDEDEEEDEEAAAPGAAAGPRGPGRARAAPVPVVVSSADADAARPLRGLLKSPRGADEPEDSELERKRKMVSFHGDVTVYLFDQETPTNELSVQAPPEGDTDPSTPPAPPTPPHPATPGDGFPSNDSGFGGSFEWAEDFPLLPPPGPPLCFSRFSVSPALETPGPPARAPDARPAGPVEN
pIC50: −log10 of the molar value.

GIVEN SMILES	TARGET OF ASSAY	pIC50
CCCCCCOC(=O)[C@]1(O)C[C@H]2O[C@]1(C)n1c3ccccc3c3c4c(c5c6ccccc6n2c5c31)C(=O)NC4	Serine/threonine-protein kinase LMTK3 (Homo sapiens)	9.93
